testSystem: DNA-PK kinase (Homo sapiens)
Construct: purchased Promega V4107
assaySummary: Inhibition assay of DNA-PK kinase (Promega kit, ADP-Glo chemiluminescence)
Assay type: biochemical
measurementParameters: 50 µM ATP, 37° C., 60 min; read-out: IC50 (nM), inhibitory activity on DNA-PK kinase
metric: IC50 (nM)

{"columns": ["sampleSmiles", "recordedMeasurement"],
 "data": [
  ["COc1cc(Nc2ncc3c(n2)n(C2CCOCC2)c(=O)n3C)c(C)cc1C(N)=O", 3.98]
]}

P: Cc1cc(C(N)=O)c(C(F)(F)F)cc1Nc1ncc2c(n1)n(C1CCOCC1)c(=O)n2C
Q: Cc1cc(C(=O)NC2CC2)ccc1Nc1ncc2c(n1)n(C1CCOCC1)c(=O)n2C
Task item: Please indicate which item has the smaller measured IC50: P versus Q Record your answer as the label of the chosen record.
Reply: P
